- assayed-system: T1, recombinant soluble human TREM2 protein (human TREM2 ECD-FlagHis) (human, UniProt Q9NZC2 19-174)
- T1 sequence: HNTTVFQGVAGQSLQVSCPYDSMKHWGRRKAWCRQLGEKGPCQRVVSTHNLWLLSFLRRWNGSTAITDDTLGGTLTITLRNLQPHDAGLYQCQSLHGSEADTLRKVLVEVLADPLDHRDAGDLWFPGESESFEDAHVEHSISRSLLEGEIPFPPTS
- run-description: Octet BLI binning; competitor: load Ab 4C5
recorded-metric: sandwich binding signal
Lab note: jot down the number only; don't add units.

# example entries with known answers
[
  {
    "binder": "32E3 (antibody, human IgG2, V domains shown, human IgG2 from hybridoma) VH: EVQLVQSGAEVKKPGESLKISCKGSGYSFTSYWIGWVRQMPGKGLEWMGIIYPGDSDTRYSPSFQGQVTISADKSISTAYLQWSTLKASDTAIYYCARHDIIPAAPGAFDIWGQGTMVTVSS VL: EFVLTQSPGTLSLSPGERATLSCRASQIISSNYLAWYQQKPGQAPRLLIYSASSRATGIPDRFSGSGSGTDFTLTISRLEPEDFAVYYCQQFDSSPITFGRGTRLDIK",
    "number": -0.016
  },
  {
    "binder": "4C5 (antibody, V domains shown, human IgG2 from hybridoma) VH: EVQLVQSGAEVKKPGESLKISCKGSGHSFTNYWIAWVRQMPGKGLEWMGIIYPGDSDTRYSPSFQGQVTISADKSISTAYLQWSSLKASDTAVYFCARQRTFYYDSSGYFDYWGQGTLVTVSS VL: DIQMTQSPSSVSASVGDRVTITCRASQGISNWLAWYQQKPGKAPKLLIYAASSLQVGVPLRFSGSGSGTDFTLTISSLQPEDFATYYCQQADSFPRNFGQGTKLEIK",
    "number": -0.014
  },
  {
    "binder": "4G10 (antibody, human IgG2, V domains shown, human IgG2 from hybridoma) VH: EVQLVQSGAEVKKPGESLKISCKGSGYSFPSYWIAWVRQMPGKGLEWMGIIYPGDSDTRYSPSFQGQVTISADKSISTAFLKWSSLKASDTAMYFCARQGIEVTGTGGLDVWGQGTTVTVSS VL: DIQMTQSPSSLSASVGDRVTITCRASQGIRNDLGWYQQKPGNAPKRLIYAASSLPSGVPSRFSGSGSGPEFTLTISSLQPEDFATYYCLQHNSYPWTFGQGTKVEIT",
    "number": -0.018
  }
]

Okay, now this binder:
Param item = 10E3 (antibody, human IgG2, V domains shown, human IgG2 from hybridoma) VH: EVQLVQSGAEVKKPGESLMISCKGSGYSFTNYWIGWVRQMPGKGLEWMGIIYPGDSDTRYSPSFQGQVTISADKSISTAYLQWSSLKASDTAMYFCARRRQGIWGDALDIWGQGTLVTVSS VL: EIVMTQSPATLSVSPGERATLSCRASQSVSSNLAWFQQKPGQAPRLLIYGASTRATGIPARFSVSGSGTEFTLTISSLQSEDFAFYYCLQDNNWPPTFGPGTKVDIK ; retrieve measured sandwich binding signal.
0
